target-under-test: HIV-RT from viral-lysate (WT) (Human immunodeficiency virus type 1 group M subtype B)
test: Inhibition of HIV-RT from viral-lysate (WT)
measurement-parameters: HIV RT (WT) from viral lysates from infected PBMC; triplicates from one experiment
observable: pIC50
Please express pIC50 as -log10 of the molar concentration.

Recorded pIC50 of Nc1ccn([C@@H]2CS[C@H](COP(=O)(O)OP(=O)(O)OP(=O)(O)O)O2)c(=O)n1 [Compound 3TC-TP, reference compound] , please.
5.19

* * *

target-under-test: HIV RT (M/I) (Human immunodeficiency virus type 1 group M subtype B, UniProt P04585, M771I)
test: Inhibition of HIV-RT from viral lysate, M184I mutant (M/I)
measurement-parameters: HIV RT (M/I) from viral lysates from infected PBMC; triplicates from one experiment
observable: IC50

Recorded IC50 of Nc1ccn([C@@H]2CS[C@H](COP(=O)(O)OP(=O)(O)OP(=O)(O)O)O2)c(=O)n1 [Compound 3TC-TP, reference compound] , please.
> 10 µM
